Source listed as the supplement of paper PMC9170038.

Test system: K4 kissing-loop RNA reporter;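 further: bound reporter read as fluorescence of individual clusters on recovered sequencing chips by microscopy, with normalized cluster intensities fitted with a binding model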
Assay: apparent KD of K4 kissing-loop reporter; higher = weaker reporter binding
Details: Eterna round: R107; input ligand: theophylline 20 uM
Answer each item with its documented apparent KD of K4 kissing-loop reporter.
Give bare numbers, in nM.

SEQUENCE	TARGET OF ASSAY	apparent KD of K4 kissing-loop reporter, nM
AUGGUGGAUCAGUGAUGUUGGUGGAGUACGUAGGAUAUGAGUGAUGUUAGAAGGAUGGGAGUGAUGUUCCAGGUGGUUGUGUUGU [KL-SSFMN-A1]	K4 kissing-loop RNA reporter	507
UCCUGCAAUCUACCACGAAAGUGGAUGGAUACCAGAGUCGAAAGACUCCCUUGGCAGCCAGUGAUGUUGGAGCAGGUAAAAUAAA	K4 kissing-loop RNA reporter	514
GGCAUGCAUGGAAACAUGCAUGCCAUGCCUCGAGGACCGGUACGGCCGCCACUCGUUAAAAGAAAUGCCAGUGAUGUUGGCCGAA	K4 kissing-loop RNA reporter	500
UUGUAAAAGUCGGCCGCCACUCCGGGCCCUAUAAAUGGGCGCAGUGAUGUUGCGGCUAGGCCUCUGAGGACCGGGACUUUAUAGC [Xeismaarbe]	K4 kissing-loop RNA reporter	66.8
UGUGCCAACAGUGAUACCAGCGUGGAGUGAUGUUCCGAGGAUCGGAGUGAUGUUCCGAAGCGCCCUUGGCAGCGCAGAAGCGCGA [Exclusion Theophylline B GF 26]	K4 kissing-loop RNA reporter	189
AAACAUUGGUCGGAUACCAGCUUGAUCGGAAAACGAUCUGCUGGAGUGAUGUUCCAAUAAAGCCCUUGGCAGCCGACCGAUGAAA [MAT - Same State Theophlline B - Mod of Eli - D14]	K4 kissing-loop RNA reporter	747
UACAUAUAGUUAUUUCUACAUUUAUUUAGUCAGGAUAUCGAUUAGACGAGAAGGGACAAUAUCAAGUGAUGUUUGAUAAUUCAAA [JR_ExcFMNA_Sub011]	K4 kissing-loop RNA reporter	100
GGAUAGGACAUAGGAUAUGGGCUAGGCAAGAAUAACUUGUCUAGCAAAUCCAUGAGGAGUGAUGUUCCAGAAGGGUGUCCUAUCG [FmnBX 1 U11+G75]	K4 kissing-loop RNA reporter	111

State the recorded apparent KD of K4 kissing-loop reporter for every item in the following list.
1. GUCCCGAGUGAUGUUCGGGUCGUUCGGGAAGGAGCGCCCGCAAGGGCAGGUAGGUCGCCCGGAUCCCUCAGGUAACUGAGGGACC [#2 Same State - Arginine A Attempt #26 (HarryS)]
2. UAACUCUUGCAGUGAUGUUGCAAGUAAGCUCAGGAUAUCAGGAAACUGAGAAGGGAGUAUCCUGAGCUUCUGCAAGAGCUCAGAA [KL-SSFMN-A5]
3. AAGGCCACGAGAAGGAGCGUGUUGUGGAGUGAUGUUCCAUUGUAGACCUAAGGUCUACAAGCACAGGUAGGUCGCUCGUGGUCAA [Omei KL Arginine B SS A v5]

1. 467
2. 68.6
3. 112
